target entity: human Gal-1 (hGal-1)
Sequence (P09382 2-135 limits assumed): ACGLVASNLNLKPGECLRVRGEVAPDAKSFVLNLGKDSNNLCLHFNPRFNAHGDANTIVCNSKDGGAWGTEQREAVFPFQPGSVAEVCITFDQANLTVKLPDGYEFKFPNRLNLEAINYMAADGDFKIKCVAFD
assay protocol: Competitive binding assay: biotinylated hGal-1 binding to microplate-adsorbed asialofetuin (ASF)
assay conditions: Activity on hGal-1; binding of biotinylated hGal-1 to ASF-coated plates; mean values
# strict inequality: IC50 < 300 nM yields Satisfied, everything else yields Not satisfied

molecule	assigned category
O=C([C@@H]1O[C@H](CO)[C@H](O)[C@H](n2cc(-c3cc(F)c(F)c(F)c3)nn2)[C@H]1O)N(Cc1ccccc1C(F)(F)F)[C@H]1CCCC[C@@H]1O [Example 7]	Not satisfied
CO[C@@H]1[C@@H](n2cc(-c3cc(F)c(F)c(F)c3)nn2)[C@@H](O)[C@@H](CO)O[C@H]1C(=O)N(c1cc(Br)cc(Br)c1)[C@H]1CCCC[C@@H]1O [Example 97]	Satisfied
COc1ccc(F)cc1-c1cn([C@H]2[C@@H](O)[C@@H](CO)O[C@@H](C(=O)N(c3cc(Cl)cc(C#N)c3)[C@H]3CCCC[C@@H]3O)[C@@H]2OC)nn1 [Example 76]	Not satisfied
CO[C@@H]1[C@@H](n2cc(-c3cc(F)c(F)c(F)c3)nn2)[C@@H](O)[C@@H](CO)O[C@H]1C(=O)N(c1cc(Cl)cc(C#N)c1)[C@H]1CCCC[C@@H]1O [Example 88]	Satisfied
CO[C@@H]1[C@@H](n2cc(-c3ccc(Br)c(F)c3F)nn2)[C@@H](O)[C@@H](CO)O[C@H]1C(=O)N(c1cc(Cl)cc(Cl)c1)[C@H]1CCCC[C@@H]1O [Example 177]	Not satisfied

====

Target or system UniProt:P17931: recorded pIC50 listed per item.
Sequence (P17931 whole entry): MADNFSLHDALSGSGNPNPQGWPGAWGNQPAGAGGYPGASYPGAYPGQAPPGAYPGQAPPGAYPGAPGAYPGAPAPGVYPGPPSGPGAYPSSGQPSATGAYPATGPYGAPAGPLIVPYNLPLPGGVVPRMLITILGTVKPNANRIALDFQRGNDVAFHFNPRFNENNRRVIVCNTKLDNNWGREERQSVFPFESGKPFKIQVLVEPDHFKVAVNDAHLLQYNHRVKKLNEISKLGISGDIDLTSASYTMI
pIC50: −log10 of the molar value.
parameter: pIC50

compound	target entity	data value
CO[C@@H]1[C@@H](n2cc(-c3ccc(Cl)c(F)c3F)nn2)[C@@H](O)[C@@H](CO)O[C@H]1C(=O)N(c1cc(Cl)cc(C#N)c1)[C@H]1CCCC[C@@H]1O [Example 178]	UniProt:P17931	7.59
O=C([C@@H]1O[C@H](CO)[C@H](O)[C@H](n2cc(-c3cc(F)c(F)c(F)c3)nn2)[C@H]1O)N(Cc1ccncc1Cl)[C@H]1CCCC[C@@H]1O [Example 8]	UniProt:P17931	6.77
CO[C@@H]1[C@@H](n2cc(-c3ccc(F)c4ccccc34)nn2)[C@@H](O)[C@@H](CO)O[C@H]1C(=O)N(c1cc(Cl)cc(Cl)c1)[C@H]1CCCC[C@@H]1O [Example 192]	UniProt:P17931	7.68
O=C([C@@H]1O[C@H](CO)[C@H](O)[C@H](n2cc(-c3cc(F)c(F)c(F)c3)nn2)[C@H]1O)N(Cc1ccccc1C(F)(F)F)[C@H]1CCCC[C@@H]1O [Example 7]	UniProt:P17931	7.24
Cn1ccnc1CN(C(=O)[C@@H]1O[C@H](CO)[C@H](O)[C@H](n2cc(-c3cc(F)c(F)c(F)c3)nn2)[C@H]1O)[C@H]1CCCC[C@@H]1O [Example 41]	UniProt:P17931	6.33

====

Reported pIC50 values follow for various molecules
target entity: human Gal-1 (hGal-1)
assay protocol: Competitive binding assay: biotinylated hGal-1 binding to microplate-adsorbed asialofetuin (ASF)
assay conditions: Activity on hGal-1; binding of biotinylated hGal-1 to ASF-coated plates; mean values
pIC50: −log10 of the molar value.

smiles representation	target entity	pIC50
CO[C@@H]1[C@@H](n2cc(-c3ccc(Br)c(F)c3)nn2)[C@@H](O)[C@@H](CO)O[C@H]1C(=O)N(c1cc(Cl)cc(Cl)c1)[C@H]1CCCC[C@@H]1O	human Gal-1 (hGal-1)	5.89
CO[C@@H]1[C@@H](n2cc(-c3ccc(Br)c(F)c3)nn2)[C@@H](O)[C@@H](CO)O[C@H]1C(=O)N(c1cc(Cl)cc(C#N)c1)[C@H]1CCCC[C@@H]1O	human Gal-1 (hGal-1)	6.10
COc1cnc2ccc(F)c(CN(C(=O)[C@@H]3O[C@H](CO)[C@H](O)[C@H](n4cc(-c5cc(F)c(F)c(F)c5)nn4)[C@H]3OC)[C@H]3CCCC[C@@H]3O)c2n1	human Gal-1 (hGal-1)	6.01
[2H]C([2H])([2H])O[C@@H]1[C@@H](n2cc(-c3cc(F)c(F)c(F)c3)nn2)[C@@H](O)[C@@H](CO)O[C@H]1C(=O)N(c1cc(Cl)cc(Cl)c1)[C@H]1CCCC[C@@H]1O	human Gal-1 (hGal-1)	6.76
CO[C@@H]1[C@@H](n2cc(-c3cc(F)c(F)c(F)c3)nn2)[C@@H](O)[C@@H](CO)O[C@H]1C(=O)N(Cc1ccnn1CC1CC1)[C@H]1CCCC[C@@H]1O	human Gal-1 (hGal-1)	6.30
COc1cc(C#N)cc(N(C(=O)[C@@H]2O[C@H](CO)[C@H](O)[C@H](n3cc(-c4cc(F)cc(F)c4)nn3)[C@H]2OC)[C@H]2CCCC[C@@H]2O)c1	human Gal-1 (hGal-1)	5.94
CO[C@@H]1[C@@H](n2cc(-c3cc(F)c(F)c(F)c3)nn2)[C@@H](O)[C@@H](CO)O[C@H]1C(=O)N(c1cc(F)cc(C#N)c1)[C@H]1CCCC[C@@H]1O	human Gal-1 (hGal-1)	6.28
CO[C@@H]1[C@@H](n2cc(-c3cc(F)cc(Br)c3)nn2)[C@@H](O)[C@@H](CO)O[C@H]1C(=O)N(c1cccc(C#N)c1)[C@H]1CCCC[C@@H]1O	human Gal-1 (hGal-1)	6.46
COc1cccc(N(C(=O)[C@@H]2O[C@H](CO)[C@H](O)[C@H](n3cc(-c4cccc(F)c4)nn3)[C@H]2OC)[C@H]2CCCC[C@@H]2O)c1	human Gal-1 (hGal-1)	5.81
CO[C@@H]1[C@@H](n2cc(-c3cccc(F)c3)nn2)[C@@H](O)[C@@H](CO)O[C@H]1C(=O)N(c1cc(Cl)cc(C#N)c1)[C@H]1CCCC[C@@H]1O	human Gal-1 (hGal-1)	6.79
CO[C@@H]1[C@@H](n2cc(-c3cc(F)c(F)c(Cl)c3)nn2)[C@@H](O)[C@@H](CO)O[C@H]1C(=O)N(c1cc(Cl)cc(Cl)c1)[C@H]1CCCC[C@@H]1O	human Gal-1 (hGal-1)	6.85
O=C([C@@H]1O[C@H](CO)[C@H](O)[C@H](n2cc(-c3cc(F)c(F)c(F)c3)nn2)[C@H]1O)N(Cc1ccncc1Cl)[C@H]1CCCC[C@@H]1O	human Gal-1 (hGal-1)	5.60
CO[C@@H]1[C@@H](n2cc(-c3cc(F)cc(Br)c3)nn2)[C@@H](O)[C@@H](CO)O[C@H]1C(=O)N(c1cccc(Cl)c1)[C@H]1CCCC[C@@H]1O	human Gal-1 (hGal-1)	6.15
CO[C@@H]1[C@@H](n2cc(-c3ccc(Br)c(F)c3)nn2)[C@@H](O)[C@@H](CO)O[C@H]1C(=O)N(c1ccc(F)c(F)c1)[C@H]1CCCC[C@@H]1O	human Gal-1 (hGal-1)	5.71
CO[C@@H]1[C@@H](n2cc(-c3cc(F)c(F)c(F)c3)nn2)[C@@H](O)[C@@H](CO)O[C@H]1C(=O)N(c1cc2sc(C)nc2cc1C)[C@H]1CCCC[C@@H]1O	human Gal-1 (hGal-1)	6.84
CO[C@@H]1[C@@H](n2cc(-c3cc(F)c(F)c(F)c3)nn2)[C@@H](O)[C@@H](CO)O[C@H]1C(=O)N(c1cc(F)cc(Br)c1)[C@H]1CCCC[C@@H]1O	human Gal-1 (hGal-1)	6.37
CO[C@@H]1[C@@H](n2cc(-c3cc(F)c(Br)c(F)c3)nn2)[C@@H](O)[C@@H](CO)O[C@H]1C(=O)N(c1cc(Cl)cc(Cl)c1)[C@H]1CCCC[C@@H]1O	human Gal-1 (hGal-1)	5.95
Cc1ccc(-c2cn([C@H]3[C@@H](O)[C@@H](CO)O[C@@H](C(=O)N(c4cc(Cl)cc(C#N)c4)[C@H]4CCCC[C@@H]4O)[C@@H]3OCC(=O)N3CCOCC3)nn2)c(F)c1F	human Gal-1 (hGal-1)	6.29
CO[C@@H]1[C@@H](n2cc(-c3cc(F)c(F)c(F)c3)nn2)[C@@H](O)[C@@H](CO)O[C@H]1C(=O)N(c1ccc2ncsc2c1)[C@H]1CCCC[C@@H]1O	human Gal-1 (hGal-1)	6.79
O=C(CO[C@@H]1[C@@H](n2cc(-c3cc(F)c(F)c(F)c3)nn2)[C@@H](O)[C@@H](CO)O[C@H]1C(=O)N(c1cc(Cl)cc(Cl)c1)[C@H]1CCCC[C@@H]1O)N1CC[C@H](O)C1	human Gal-1 (hGal-1)	6.87

====

target entity: human Gal-1 (hGal-1)
assay protocol: Competitive binding assay: biotinylated hGal-1 binding to microplate-adsorbed asialofetuin (ASF)
assay conditions: Activity on hGal-1; binding of biotinylated hGal-1 to ASF-coated plates; mean values
pIC50: −log10 of the molar value.

molecule	pIC50
CO[C@@H]1[C@@H](n2cc(-c3ccc(Cl)c(Cl)c3)nn2)[C@@H](O)[C@@H](CO)O[C@H]1C(=O)N(c1cc(Cl)cc(C#N)c1)[C@H]1CCCC[C@@H]1O [Example 186]	6.68
CO[C@@H]1[C@@H](n2cc(-c3cc(F)c(F)c(Cl)c3)nn2)[C@@H](O)[C@@H](CO)O[C@H]1C(=O)N(c1ccc2ncsc2c1)[C@H]1CCCC[C@@H]1O [Example 131]	6.65
CO[C@@H]1[C@@H](n2cc(-c3cc(F)c(F)c(F)c3)nn2)[C@@H](O)[C@@H](CO)O[C@H]1C(=O)N(Cc1ccnn1C)[C@H]1CCCC[C@@H]1O [Example 32]	6.04
CC(=O)O[C@@H]1[C@@H](n2cc(-c3cc(F)c(F)c(F)c3)nn2)[C@@H](O)[C@@H](CO)O[C@H]1C(=O)N(Cc1ccccc1C(F)(F)F)[C@H]1CCCC[C@@H]1O [Example 55]	6.08
O=C([C@@H]1O[C@H](CO)[C@H](O)[C@H](n2cc(-c3cc(F)c(F)c(F)c3)nn2)[C@H]1O)N(Cc1ccccc1Cl)[C@H]1CCCC[C@@H]1O [Example 6]	5.72

Measured values drawn from patent US12291519B2 for this set.
